Just for reference, the supplement of paper PMC10567573 is where these values come from.

Provide the reported protein stability index of each item.
B1: KLHL14 (parent)
chain: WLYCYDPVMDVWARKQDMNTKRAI

- Variants of: B1
- PROCEDURE DETAILS: protein stability index of a GFP-peptide fusion (GPS, HEK-293T) (PSI 1-6); higher = more stable;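 further: lentivirally expressed fusions sorted by FACS into six bins by GFP to DsRed ratio, PSI derived from sequencing read proportions per bin multiplied by bin number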
- CONDITION CONTEXT: c terminus: a fixed tail appended
Lab note: record just the number, no unit beside it.

protein stability index in this record for W12E : 2.06

protein stability index in this record for A23M : 2.22

protein stability index in this record for W1D : 4.41

protein stability index in this record for K21G : 2.61

protein stability index in this record for K21L : 1.88

protein stability index in this record for I24L : 2.25

protein stability index in this record for A23K : 1.97

protein stability index in this record for A13Y : 1.87

protein stability index in this record for P7I : 1.93

protein stability index in this record for I24R : 1.4

protein stability index in this record for L2P : 2.13
